All figures here come from patent US20120107330A1.

For each entry below, report its koff value.
Target: T1, human TNFR1 (recombinant, R&D Systems cat no. 636-R1/CF, biotinylated) (human, UniProt P19438 30-211, limits assumed, biotinylated with EZ-Link NHS-LC-LC-biotin)
T1 construct: it is not tied to the BIAcore reagent; also called p55; hTNFR1
T1 sequence (looked up): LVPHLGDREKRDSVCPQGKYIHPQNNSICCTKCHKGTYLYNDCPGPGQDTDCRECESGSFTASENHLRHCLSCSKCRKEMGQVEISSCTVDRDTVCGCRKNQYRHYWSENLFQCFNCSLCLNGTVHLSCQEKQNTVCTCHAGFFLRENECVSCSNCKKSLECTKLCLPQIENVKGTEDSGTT
Test: BIAcore, TNFR1 (species not given, taken as human)
One number for each entry, in s⁻¹.

# count of solved cases: 2
[
  {
    "binder": "DMS0132 (bispecific antibody, anti-TNFR1 dAb / AlbudAb in-line fusion) EVQLLESGGGLVQPGGSLRLSCAASGFTFVKYSMGWVRQAPGKGLEWVSQISDTADRTYYAHSVKGRFTISRDNSKNTLYLQMNSLRAEDTAVYYCAIYTGRWVPFEYWGQGTLVTVSSASTDIQMTQSPSSLSASVGDRVTITCRASRPIGTTLSWYQQKPGKAPKLLILWNSRLQSGVPSRFSGSGSGTDFTLTISSLQPEDFATYYCAQAGTHPTTFGQGTKVEIKR",
    "koff / s⁻¹": "4.6e-05"
  },
  {
    "binder": "DMS0135 (bispecific antibody, anti-TNFR1 dAb / AlbudAb in-line fusion) EVQLLESGGGLVQPGGSLRLSCAASGFTFFKYSMGWVRQAPGKGLEWVSQISDTADRTYYSHSVKGRFTISRDNSKNTLYLQMNSLRAEDTAVYYCAIYTGRWVPFEYWGQGTLVTVSSASTDIQMTQSPSSLSASVGDRVTITCRASRPIGTTLSWYQQKPGKAPKLLILWNSRLQSGVPSRFSGSGSGTDFTLTISSLQPEDFATYYCAQAGTHPTTFGQGTKVEIKR",
    "koff / s⁻¹": "5.7e-05"
  }
]

// each binder listed below needs its koff
1. DMS0134 (bispecific antibody, anti-TNFR1 dAb / AlbudAb in-line fusion) EVQLLESGGGLVQPGGSLRLSCAASGFTFFKYSMGWVRQAPGKGLEWVSQISDTADRTYYAHSVKGRFTISRDNSKNTLYLQMNSLRAEDTAVYYCAIYTGRWVPFEYWGQGTLVTVSSASTDIQMTQSPSSLSASVGDRVTITCRASRPIGTTLSWYQQKPGKAPKLLILWNSRLQSGVPSRFSGSGSGTDFTLTISSLQPEDFATYYCAQAGTHPTTFGQGTKVEIKR
2. DMS0133 (bispecific antibody, anti-TNFR1 dAb / AlbudAb in-line fusion) EVQLLESGGGLVQPGGSLRLSCAASGFTFFKYSMGWVRQAPGKGLEWVSQISDTADRTYYAHSVKGRFTISRDNSKNTLYLQMNSLRAEDTAVYYCAIYTGRWAPFEYWGQGTLVTVSSASTDIQMTQSPSSLSASVGDRVTITCRASRPIGTTLSWYQQKPGKAPKLLILWNSRLQSGVPSRFSGSGSGTDFTLTISSLQPEDFATYYCAQAGTHPTTFGQGTKVEIKR

["4.9e-05", "3.6e-05"]
